Collected pIC50 values appear next to each entry.
- System: Leishmania donovani
- MEASUREMENT_DESCRIPTION: Antileishmanial activity against intracellular amastigote form of Leishmania donovani
- Type: functional, organism-based
pIC50 is a log-scale quantity: -log10 of the concentration expressed in molar.

1. CC(C)C1=CC(=O)C2=C(CC[C@H]3C(C)(C)CCC[C@]23C)C1=O ... 6.92

// switching to the query molecule
Quote pIC50 reported for COC1=C(C(C)C)C(=O)C2=C(O)C(=O)C3=C(C=CCC3(C)C)C2=C1 please.
6.77

====

- MEASUREMENT_DESCRIPTION: Selectivity index, ratio of IC50 for human MRC5 cells to IC50 for Trypanosoma brucei Squib-427
- Type: toxicity, cell-based
- MEASUREMENT_PARAMETERS: read-out: Ratio IC50
OBSERVED_PROPERTY: selectivity ratio
Simply state the number, no unit and no words.

Entry CC(C)C1=CC2=C[C@H](O)[C@H]3C(C)(C)C(O)C=C[C@]3(C)C2=C(O)C1=O (stereo partly specified) needs its selectivity ratio filled in; supply it.
50.5

====

- MEASUREMENT_DESCRIPTION: Selectivity index, ratio of IC50 for human MRC5 cells to IC50 for Plasmodium falciparum 2/K 1-strain
- Assay type: toxicity, cell-based
- MEASUREMENT_PARAMETERS: read-out: Ratio IC50
OBSERVED_PROPERTY: selectivity ratio
Keep it simple and answer with nothing but the number.

Given the molecule CC(C)C1=CC2=C[C@H](O)[C@H]3C(C)(C)C(O)C=C[C@]3(C)C2=C(O)C1=O (stereo partly specified) , write its reported selectivity ratio.
10.4

====

- Test system: Trypanosoma cruzi
- MEASUREMENT_DESCRIPTION: Trypanocidal activity against epimastigote Trypanosoma cruzi IRHOD/CO/2008/SN3
- Assay type: functional, organism-based
OBSERVED_PROPERTY: pIC50
By convention, pIC50 is the negative base-10 log of a molar concentration.

Past entries and their recorded results:
1. CC(C)c1cc2c(cc1O)[C@@]1(C)CCCC(C)(C)[C@@H]1CC2=O ... 4.48
2. COC(=O)[C@]1(C)CCC[C@]2(C)c3ccc(O)cc3CC[C@@H]12 ... 4.41
3. CC(C)c1cc2c(cc1O)[C@@]1(C)CCC[C@@](C)(CO)[C@@H]1[C@@H](O)C2=O ... 4.73
4. CC(C)c1cc2c(c(Br)c1O)[C@@]1(C)CCCC(C)(C)[C@@H]1CC2 ... 4.30

Would you kindly look at the next entry?
Provide measured pIC50 value, entry: CC(=O)OC[C@@]1(C)CCC[C@]2(C)c3cc(O)c(C(C)C)cc3C(=O)C[C@@H]12
4.58

====

- SYSTEM_TESTED: Superoxide dismutase [Cu-Zn] (Homo sapiens, UniProt P00441)
- Sequence (P00441 whole entry): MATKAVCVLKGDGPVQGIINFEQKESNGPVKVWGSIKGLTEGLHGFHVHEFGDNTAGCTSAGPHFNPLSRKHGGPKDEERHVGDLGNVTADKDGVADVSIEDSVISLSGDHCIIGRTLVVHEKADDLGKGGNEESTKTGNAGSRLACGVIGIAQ
- MEASUREMENT_DESCRIPTION: Inhibition of CuZn-SOD in human erythrocytes
OBSERVED_PROPERTY: pIC50
Please express pIC50 as -log10 of the molar concentration.

1) COC(=O)[C@]1(C)CCC[C@]2(C)c3ccc(O)cc3CC[C@@H]12 ... 4.23

Turning to the following molecule.
Assign pIC50 to the following record: CC(C)c1cc2c(cc1O)[C@@]1(C)CCC[C@@](C)(CO)[C@@H]1[C@@H](O)C2=O
4.25
